molecular target: MAO B Ile199Ala-Tyr326Ala (Homo sapiens, UniProt P27338, I199A/Y326A); format: biochemical; settings: Ile199Ala-Tyr326Ala double mutant

Compound: C(C=Cc1ccccc1)=Cc1ccccc1 [DPBD, 1,4-Diphenyl-1,3-butadiene]
binding / inhibition in words: no detectable binding
--
Compound: C(=CCc1ccccc1)Cc1ccccc1 [DPB, 1,4-Diphenyl-2-butene]
binding / inhibition in words: no detectable binding

* * *

Target: MAO B Ile199Ala (Homo sapiens, UniProt P27338, I199A)
Sequence (P27338 1-520 I199A): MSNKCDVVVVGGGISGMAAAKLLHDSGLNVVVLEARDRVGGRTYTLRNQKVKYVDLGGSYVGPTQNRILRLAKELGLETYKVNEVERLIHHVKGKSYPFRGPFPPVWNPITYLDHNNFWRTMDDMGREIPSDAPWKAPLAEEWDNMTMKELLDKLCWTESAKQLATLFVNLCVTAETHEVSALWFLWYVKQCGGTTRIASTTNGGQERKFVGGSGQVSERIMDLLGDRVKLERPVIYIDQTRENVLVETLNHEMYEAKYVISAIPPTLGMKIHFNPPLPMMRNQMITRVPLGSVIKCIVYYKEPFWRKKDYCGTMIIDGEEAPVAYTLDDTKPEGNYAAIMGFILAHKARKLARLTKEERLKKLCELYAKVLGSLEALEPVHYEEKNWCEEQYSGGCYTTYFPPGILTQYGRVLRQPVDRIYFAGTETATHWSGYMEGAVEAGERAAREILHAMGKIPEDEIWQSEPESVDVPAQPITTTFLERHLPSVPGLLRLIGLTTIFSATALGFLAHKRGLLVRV
Format: biochemical
pKi: −log10 of the molar value.
Each entry below lists one item and its recorded pKi value.

Compound: Cc1nccc2c1[nH]c1ccccc12
pKi: 3.26
//
Compound: C(C=Cc1ccccc1)=Cc1ccccc1
pKi: 6.00
